System: LOX IMVI melanoma
assayRemarks: NCI-60 one-dose screen, 48 h (100 = growth as untreated, 0 = no growth, -100 = all killed)
experimentalSetup: 10 µM
The panel holds about 83,000 compounds, 20% with a hit somewhere; the sample as a whole holds those more often.
Could you mark each record class 1 if its growth falls strictly under 90%, and class 0 if it equals or exceeds it?

Record excerpt, results attached:
compound: O=C1CC(c2cccc(-c3cccnc3)c2)=Nc2ccc(Br)cc2N1
targetSystem: LOX IMVI melanoma
category: class 1
//
compound: CC(C)C(C)C(N)C(=O)O (stereo unspecified)
targetSystem: LOX IMVI melanoma
category: class 0
//
compound: CC1=CC2OC34COC3CC(OC(=O)C(F)(F)F)C4(C)C2(C)CC1 (stereo unspecified)
targetSystem: LOX IMVI melanoma
category: class 0
//
compound: COc1cc(Cn2c(-c3ccccc3)c(Cl)c3c2-c2oncc2CC3)cc(OC)c1
targetSystem: LOX IMVI melanoma
category: class 1

I'd appreciate it if you could check whether COc1ccccc1NC1=C(N2CCCCC2)C(=O)c2ccccc2C1=O has growth smaller than 90%.
class 1

The origin of these recorded values is PubChem BioAssay (NCI).
